// data source = patent US20230203177A1

target: T1, soluble human CD40 extracellular domain (human, UniProt P25942 21-193); experiment: SPR, Ab captured from supernatant on protein A, hCD40 ECD analyte
T1 construct: Produced in house; also called hCD40; soluble hCD40 extracellular domain
T1 sequence (P25942 21-193 limits assumed): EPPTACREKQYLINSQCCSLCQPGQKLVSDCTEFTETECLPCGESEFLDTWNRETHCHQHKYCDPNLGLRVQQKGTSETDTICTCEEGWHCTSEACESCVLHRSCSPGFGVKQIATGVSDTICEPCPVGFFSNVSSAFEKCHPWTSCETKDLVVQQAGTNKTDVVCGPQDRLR
experimental.readout: pKd
Keep it numeric: pKd is minus log10 of the concentration in mol/L.

Please give measured pKd of the following entry: M79 (HC-R67Q / LC-R61Q) (antibody, human IgG1, kappa, V domains shown, IgG1-P238K; also called HC15/LC5) VH: QVQLVQSGAEVKKPGSSVKVSCKASGYAFTSYWMHWVRQAPGQGLEWMGQINPTTGRSQYNEKFKTQVTITADKSTSTAYMELSSLRSEDTAVYYCARWGLQPFAYWGQGTLVTVSS VL: DIQMTQSPSFLSASVGDRVTITCKASQDVSTAVAWYQQKPGKAPKLLIYSASYRYTGVPSQFSGSGSGTDFTLTISSLQPEDFATYYCQQHYSTPWTFGGGTKVEIKR
8.46

Quick one: give measured pKd for M42 (HC-R67E / LC-K45E) (antibody, human IgG1, kappa, V domains shown, IgG1-P238K; also called HC10/LC3) VH: QVQLVQSGAEVKKPGSSVKVSCKASGYAFTSYWMHWVRQAPGQGLEWMGQINPTTGRSQYNEKFKTEVTITADKSTSTAYMELSSLRSEDTAVYYCARWGLQPFAYWGQGTLVTVSS VL: DIQMTQSPSFLSASVGDRVTITCKASQDVSTAVAWYQQKPGKAPELLIYSASYRYTGVPSRFSGSGSGTDFTLTISSLQPEDFATYYCQQHYSTPWTFGGGTKVEIKR
8.52

Let me know recorded pKd for M78 (HC-K74T / LC-R61Q) (antibody, human IgG1, kappa, V domains shown, IgG1-P238K; also called HC14/LC5) VH: QVQLVQSGAEVKKPGSSVKVSCKASGYAFTSYWMHWVRQAPGQGLEWMGQINPTTGRSQYNEKFKTRVTITADTSTSTAYMELSSLRSEDTAVYYCARWGLQPFAYWGQGTLVTVSS VL: DIQMTQSPSFLSASVGDRVTITCKASQDVSTAVAWYQQKPGKAPKLLIYSASYRYTGVPSQFSGSGSGTDFTLTISSLQPEDFATYYCQQHYSTPWTFGGGTKVEIKR , thanks.
8.40
